- tgt: Factor X (FX), P00742
- Sequence (P00742 whole entry, looked up): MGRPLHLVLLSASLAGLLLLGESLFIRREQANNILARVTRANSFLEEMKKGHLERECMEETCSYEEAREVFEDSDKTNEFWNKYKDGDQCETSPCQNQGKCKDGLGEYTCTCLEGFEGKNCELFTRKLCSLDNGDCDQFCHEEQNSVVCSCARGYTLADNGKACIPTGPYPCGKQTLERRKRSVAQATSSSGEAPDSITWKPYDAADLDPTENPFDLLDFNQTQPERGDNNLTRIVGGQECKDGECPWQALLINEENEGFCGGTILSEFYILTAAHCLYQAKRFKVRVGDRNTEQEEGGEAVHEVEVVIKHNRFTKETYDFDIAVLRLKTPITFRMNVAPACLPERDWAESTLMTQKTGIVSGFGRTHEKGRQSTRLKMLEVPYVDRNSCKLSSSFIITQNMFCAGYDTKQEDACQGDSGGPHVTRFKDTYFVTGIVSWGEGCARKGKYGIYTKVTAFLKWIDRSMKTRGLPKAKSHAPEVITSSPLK
endpoint: KM (µM)
Answers are plain numbers, in µM.

# annotated cases, reported KM shown
protein | KM, µM
FIXa-K228N/K247N/N249S/R318Y/R338E/T343R/R403E/E410N (protein) chain 1: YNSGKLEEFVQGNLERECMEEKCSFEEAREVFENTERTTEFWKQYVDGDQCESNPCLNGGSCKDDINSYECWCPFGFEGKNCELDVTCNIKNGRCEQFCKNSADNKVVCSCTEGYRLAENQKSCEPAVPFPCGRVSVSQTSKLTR chain 2: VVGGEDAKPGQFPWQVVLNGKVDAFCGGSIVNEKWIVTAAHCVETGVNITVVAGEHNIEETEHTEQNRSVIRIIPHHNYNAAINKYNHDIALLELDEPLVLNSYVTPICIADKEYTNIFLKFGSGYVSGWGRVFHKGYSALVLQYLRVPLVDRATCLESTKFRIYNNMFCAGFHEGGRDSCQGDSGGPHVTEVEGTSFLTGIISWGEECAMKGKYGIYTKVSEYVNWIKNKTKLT | 0.0251
FIXa-Y155F/N260S/R318Y/R338E/R403E/E410N (protein) chain 1: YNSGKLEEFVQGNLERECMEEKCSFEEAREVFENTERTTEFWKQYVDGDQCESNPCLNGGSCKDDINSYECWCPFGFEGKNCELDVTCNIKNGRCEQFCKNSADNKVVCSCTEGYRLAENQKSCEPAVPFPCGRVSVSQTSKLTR chain 2: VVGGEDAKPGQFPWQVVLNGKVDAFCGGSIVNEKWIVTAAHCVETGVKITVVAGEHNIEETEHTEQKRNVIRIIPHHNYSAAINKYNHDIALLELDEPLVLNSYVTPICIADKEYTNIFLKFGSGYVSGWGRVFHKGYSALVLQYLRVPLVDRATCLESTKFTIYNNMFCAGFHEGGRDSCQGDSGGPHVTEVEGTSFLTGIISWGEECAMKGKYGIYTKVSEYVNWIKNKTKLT | 0.0839
FIXa-K247N/N249S/R338E/T343R/R403E (protein) chain 1: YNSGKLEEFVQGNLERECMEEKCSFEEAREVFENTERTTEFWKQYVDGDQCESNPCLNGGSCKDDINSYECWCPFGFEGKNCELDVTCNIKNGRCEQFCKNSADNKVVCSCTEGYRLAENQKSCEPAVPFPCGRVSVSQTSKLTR chain 2: VVGGEDAKPGQFPWQVVLNGKVDAFCGGSIVNEKWIVTAAHCVETGVKITVVAGEHNIEETEHTEQNRSVIRIIPHHNYNAAINKYNHDIALLELDEPLVLNSYVTPICIADKEYTNIFLKFGSGYVSGWGRVFHKGRSALVLQYLRVPLVDRATCLESTKFRIYNNMFCAGFHEGGRDSCQGDSGGPHVTEVEGTSFLTGIISWGEECAMKGKYGIYTKVSEYVNWIKEKTKLT | 0.0263

Entry under review: FIXa R338E/R403E/E410N (protein) chain 1: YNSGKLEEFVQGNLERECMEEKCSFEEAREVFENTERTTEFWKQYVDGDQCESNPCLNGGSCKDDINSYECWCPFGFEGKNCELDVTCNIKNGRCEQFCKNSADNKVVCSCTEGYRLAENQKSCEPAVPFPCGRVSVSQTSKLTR chain 2: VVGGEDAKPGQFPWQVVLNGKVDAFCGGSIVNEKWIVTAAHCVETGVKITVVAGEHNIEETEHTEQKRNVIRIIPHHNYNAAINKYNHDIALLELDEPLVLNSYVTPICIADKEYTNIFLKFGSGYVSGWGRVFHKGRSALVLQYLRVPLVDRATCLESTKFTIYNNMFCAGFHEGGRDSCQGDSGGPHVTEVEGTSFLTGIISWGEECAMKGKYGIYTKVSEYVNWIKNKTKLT . Reported KM?
0.0367

Measured values drawn from patent US20210238260 for this set.
